Catalogue of DSF max dTma readings, one per entry.
experimental-target: SARS-CoV-2 NSP3 Mac1 (Severe acute respiratory syndrome coronavirus 2)
Set-up: contains a conserved macrodomain enzyme (Mac1); differential scanning fluorimetry, maximum thermal upshift
run-conditions: binder
endpoint-label: DSF max dTma (degC)

                                   compound  endpoint_label  test_result
0  Nc1ncnc2c1ncn2Cc1cccc(C(F)(F)F)c1 [Z0893, ZINC000110510893]    DSF max dTma          0.5
1  Nc1ncnc2c1ncn2Cc1ccc(Cl)cn1 [Z0078, ZINC000559260078]    DSF max dTma         0.98
2  Nc1ncnc2c1ncn2Cc1cc(-c2ccco2)on1 [Z4827, ZINC000681764827]    DSF max dTma         0.63
3  O=C(c1cn[nH]c(=O)c1)N1CCC(CF)(C(=O)O)C1 (stereo not shown) [R8407, REAL250001448407]    DSF max dTma            0
4  CC(CSc1nnc2[nH]cnn12)c1ccccc1 (stereo not shown) [Z3280, ZINC000920153280]    DSF max dTma            0
5  Nc1ncnc(N2CCC(Oc3ccncc3)C2)c1Cl (stereo not shown) [Z9710, ZINC000302059710]    DSF max dTma            0
6  O=C(NC1c2cccc(O)c2CC1C(=O)O)c1cnc2c(c1)CCCN2 (stereo not shown) [Z8539_0006, 8539_0006]    DSF max dTma            0

These measurements were taken from paper PMC9926234.
